System: MCF7
measurement_notes: Antiproliferative activity against human MCF7 cells assessed as reduction in cell viability incubated for 48 hrs by MTT assay
Assay type: functional, cell-based
test_context: MCF7, 48 h
pIC50: −log10 of the molar value.
readout_label: pIC50

For orientation, consider the following solved cases.
entry_smiles: Cc1cc(N(C)c2cnc3c(ccn3C)c2)c2ccccc2n1
pIC50: 8.35
--
entry_smiles: COc1ccc(N(C)c2cc(C)nc3ccccc23)cc1OC
pIC50: 7.01
--
entry_smiles: Cc1cc(N(C)c2ccc3c(c2)cc(C)n3C)c2ccccc2n1
pIC50: 8.62
--
entry_smiles: CCN(CC)c1ccc(N(C)c2cc(C)nc3ccccc23)cc1
pIC50: 7.60
--
entry_smiles: Cc1cc(N(C)c2ccc(N(C)C)cc2)c2ccccc2n1
pIC50: 6.03

I. Cc1cc(N(C)c2ccc3c(c2)OCO3)c2ccccc2n1
II. Cc1ccc(N(C)c2cc(C)nc3ccccc23)cc1
Which entry has a larger number for pIC50, I or II ? Could you answer with the label of the item you picked?
I
(I: 7.27, II: 6.99)

1. Cc1nc(N(C)c2ccc3c(c2)cc(C)n3C)c2ccccc2n1
2. Cc1nc(N(C)c2cnc3c(ccn3C)c2)c2ccccc2n1
Decide: 1 or 2 , by lowest recorded pIC50. The response must carry the label of the picked entry.
2

###

Tested on: MCF7
measurement_notes: Antiproliferative activity against human MCF7 cells assessed as reduction in cell viability incubated for 48 hrs by MTT assay
Format: functional, cell-based
test_context: MCF7, 48 h
pIC50: −log10 of the molar value.
Each entry below carries its reported pIC50.

Previously resolved entries follow.
entry_smiles: Cc1cc(N(C)c2ccc(-c3ccccc3)cc2)c2ccccc2n1
measurement_target: MCF7
readout_label: pIC50
test_value: < 6.00
//
entry_smiles: COc1cc(N(C)c2cc(C)nc3ccccc23)cc(OC)c1OC
measurement_target: MCF7
readout_label: pIC50
test_value: < 6.00
//
entry_smiles: Cc1cc(N(C)c2ccc(C(F)(F)F)cc2)c2ccccc2n1
measurement_target: MCF7
readout_label: pIC50
test_value: < 6.00

What value of measured pIC50 is listed for COc1ccc(/C=C\c2cc(OC)c(OC)c(OC)c2)cc1O ?
8.32
